Value source: ChEMBL document CHEMBL1133730

Exercise: for every item that follows, state its recorded pEC50.
- assay_system: Adenosine receptor A3 (Homo sapiens)
- Sequence (P0DMS8 whole entry): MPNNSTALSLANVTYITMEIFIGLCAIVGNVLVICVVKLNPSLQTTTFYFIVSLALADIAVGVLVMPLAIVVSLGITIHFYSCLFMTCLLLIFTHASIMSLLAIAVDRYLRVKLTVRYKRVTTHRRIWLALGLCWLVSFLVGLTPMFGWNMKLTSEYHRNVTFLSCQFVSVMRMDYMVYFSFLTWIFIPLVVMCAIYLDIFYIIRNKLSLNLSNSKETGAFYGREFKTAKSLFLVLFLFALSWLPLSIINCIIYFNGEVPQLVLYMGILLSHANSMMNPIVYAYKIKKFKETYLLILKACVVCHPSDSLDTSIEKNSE
- assay_name: Stimulation of [35S]GTP-gamma-S, against human adenosine A3 receptor
Numbers only, as −log10 of the molar value.

[[record]]
smiles_notation = "OC[C@@]12C[C@@H]1[C@@H](n1cnc3c(NCc4cccc(I)c4)nc(Cl)nc31)[C@H](O)[C@@H]2O"
assay_result = 9.17


Then this compound:
Requested field: pEC50. Item: OC[C@@]12C[C@@H]1[C@@H](n1cnc3c(NCc4cccc(I)c4)ncnc31)[C@H](O)[C@@H]2O
9.15
